Test system: 521955-158-R2-J5-PDC complex spheroids, viability;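 further: spheroids also contain HUVEC endothelial cells and mesenchymal stem cells as stroma; compound exposure lasted seven days before the viability read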
RUN_DESCRIPTION: Anticancer human tumor 521955-158-R2-J5-PDC patient-derived pancreatic carcinoma cell line growth inhibition [RAS]; active means viability on the fitted dose curve at most 10% of control; inactive means the rest
PROTOCOL_CONDITIONS: second compound 0.316 µM; first compound 10 µM
Outcome codes: active, inactive

# MOLECULE, QUALITATIVE_LABEL
data = [
    ("Cc1nc(N2CCC3(CC2)COC(C)C3N)c(CO)nc1Sc1ccnc(N)c1Cl (stereo not given) + C=CC(=O)N1CCN(c2nc(OCC3CCCN3C)nc3c(F)c(-c4nc(N)cc(C)c4C(F)(F)F)c(Cl)cc23)C(C)C1", "inactive"),
    ("NC1c2ccccc2OC12CCN(c1cnc3c(N4CCCc5ncccc54)n[nH]c3n1)CC2 (stereo not given) + C#Cc1c(F)ccc2cc(O)cc(-c3ncc4c(N5CC6CCC(C5)N6)nc(OCC56CCCN5CC(F)C6)nc4c3F)c12", "active"),
    ("CC(Nc1ccc2c(c1)OCCn1cc(N3C(=O)OCC3C(F)F)nc1-2)C(N)=O (stereo not given) + C=CC(=O)N1CCN(c2nc(OCC3CCCN3C)nc3c(F)c(-c4nc(N)cc(C)c4C(F)(F)F)c(Cl)cc23)C(C)C1", "inactive"),
    ("CC(C)NCC(C(=O)N1CCN(c2ncnc3c2C(C)CC3O)CC1)c1ccc(Cl)cc1 (stereo not given) + C#Cc1c(F)ccc2cc(O)cc(-c3ncc4c(N5CC6CCC(C5)N6)nc(OCC56CCCN5CC(F)C6)nc4c3F)c12", "active"),
    ("C[C@@H](NC(=O)c1ncnc(N)c1Cl)c1ncc(C(=O)Nc2cc(C(F)(F)F)c(Cl)cn2)s1 + C=CC(=O)N1CCN(c2nc(OCC3CCCN3C)nc3c(F)c(-c4nc(N)cc(C)c4C(F)(F)F)c(Cl)cc23)C(C)C1", "inactive"),
    ("NC1c2ccccc2OC12CCN(c1cnc3c(N4CCCc5ncccc54)n[nH]c3n1)CC2 (stereo not given) + C=CC(=O)N1CCN(c2nc(OCC3CCCN3C)nc3c(F)c(-c4nc(N)cc(C)c4C(F)(F)F)c(Cl)cc23)C(C)C1", "inactive"),
    ("CC(C)NCC(C(=O)N1CCN(c2ncnc3c2C(C)CC3O)CC1)c1ccc(Cl)cc1 (stereo not given) + C=CC(=O)N1CCN(c2nc(OCC3CCCN3C)nc3c(F)c(-c4nc(N)cc(C)c4C(F)(F)F)c(Cl)cc23)C(C)C1", "inactive"),
    ("CC(=O)OC12COC1CC(O)C1(C)C(=O)C(O)C3=C(C)C(OC(=O)C(O)C(NC(=O)OC(C)(C)C)c4ccccc4)CC(O)(C(OC(=O)c4ccccc4)C21)C3(C)C (stereo not given) + C=CC(=O)N1CCN(c2nc(OCC3CCCN3C)nc3c(F)c(-c4nc(N)cc(C)c4C(F)(F)F)c(Cl)cc23)C(C)C1", "inactive"),
    ("CCC(CC)c1cc(NC2CCC(N)C2)n2nccc2n1 (stereo not given) + C#Cc1c(F)ccc2cc(O)cc(-c3ncc4c(N5CC6CCC(C5)N6)nc(OCC56CCCN5CC(F)C6)nc4c3F)c12", "inactive"),
    ("CC1(O)CCCC1n1c(=O)c(C(F)F)cc2cnc(NC3CCN(S(C)(=O)=O)CC3)nc21 (stereo not given) + C#Cc1c(F)ccc2cc(O)cc(-c3ncc4c(N5CC6CCC(C5)N6)nc(OCC56CCCN5CC(F)C6)nc4c3F)c12", "inactive"),
]
